B1: FBXO3 (parent)
chain: DEEERRRRVFDVPIRRRRCSRLF

# Variants of: B1
# assay_overview: protein stability index of a GFP-peptide fusion (GPS, HEK-293T) (PSI 1-6); higher = more stable;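 further: lentivirally expressed fusions sorted by FACS into six bins by GFP to DsRed ratio, PSI derived from sequencing read proportions per bin multiplied by bin number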
# assay_context: c terminus: native
Group membership follows protein stability index per the scheme low bin: < 2; mid bin: ≥ 2 and < 3; high bin: ≥ 3

Here are 5 variants together with their reported answers.
sequence_record	label_value
DEEERRRRVFDVPIRRRRCSRLM [F23M]	mid bin
DEEERRRRVFDVPIRRRTCSRLF [R18T]	low bin
DEEERRRRVFDDPIRRRRCSRLF [V12D]	mid bin
DEEEERRRVFDVPIRRRRCSRLF [R5E]	high bin
DECERRRRVFDVPIRRRRCSRLF [E3C]	low bin

Now for another entry.
Qu. Categorize the following entry: DELERRRRVFDVPIRRRRCSRLF [E3L]
Ans. low bin

Source listed as the supplement of paper PMC10567573.
